Just for reference, patent US9486434B2 is where these values come from.

Test system: human bladder cancer UM-UC-3 cells
Test: MTT cell growth and proliferation assay, UM-UC-3 cells
Type: cell-based
Settings: Homo sapiens, UMUC3; Example 9, 72 h treatment; read-out: IC50, inhibition of cell proliferation
pIC50: −log10 of the molar value.
ATTRIBUTE MEASURED: pIC50

1. C=CCNC(=S)SC[C@H](NC(C)=O)C(=O)O :: 5.13
